- EXPERIMENTAL TARGET: CDK8/CycC (Homo sapiens, UniProt P49336)
- Construct: purchased Carna Biosciences
- Sequence (P49336 whole entry): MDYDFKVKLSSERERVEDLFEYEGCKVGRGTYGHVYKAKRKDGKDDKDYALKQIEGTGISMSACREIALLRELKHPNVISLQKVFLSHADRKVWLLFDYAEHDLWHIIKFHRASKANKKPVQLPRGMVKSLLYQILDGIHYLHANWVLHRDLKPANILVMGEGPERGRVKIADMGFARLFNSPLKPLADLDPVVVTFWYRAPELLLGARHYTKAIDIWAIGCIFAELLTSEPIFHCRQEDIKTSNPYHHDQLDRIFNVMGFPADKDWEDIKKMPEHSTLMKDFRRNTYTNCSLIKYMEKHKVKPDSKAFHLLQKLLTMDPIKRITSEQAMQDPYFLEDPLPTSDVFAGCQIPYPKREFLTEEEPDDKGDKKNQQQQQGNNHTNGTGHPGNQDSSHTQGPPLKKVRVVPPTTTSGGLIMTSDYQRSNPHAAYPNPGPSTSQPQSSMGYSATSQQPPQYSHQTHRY
- Sequence (P24863 whole entry partner): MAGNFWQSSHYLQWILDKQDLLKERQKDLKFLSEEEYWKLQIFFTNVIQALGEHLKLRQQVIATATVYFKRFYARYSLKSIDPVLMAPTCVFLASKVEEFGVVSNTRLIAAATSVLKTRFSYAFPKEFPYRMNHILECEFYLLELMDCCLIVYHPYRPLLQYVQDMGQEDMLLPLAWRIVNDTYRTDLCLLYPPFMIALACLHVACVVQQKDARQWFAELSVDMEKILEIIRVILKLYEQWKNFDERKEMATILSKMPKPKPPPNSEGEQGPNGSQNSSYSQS
- EXPERIMENTAL PROTOCOL: CDK8-inhibiting activity (Kinase Tracer-236 / Eu-anti-GST fluorescence assay)
- Format: binding
- CONDITION DESCRIPTION: 10 μM test compound; read-out: rate of inhibition of CDK8
Counter-ions that a name gives are not always drawn.
ATTRIBUTE MEASURED: inhibition at 10 µM (%)

INSERT INTO results (compound, experimental_target, numeric_readout) VALUES
  ('Oc1ccc(-c2n[nH]cc2-c2ccc3c(c2)OCCO3)c(O)c1 [Compound 5, reference compound]', 'CDK8/CycC (Homo sapiens, UniProt P49336)', 100),
  ('c1ccc(COc2cccc(-c3c[nH]c4ncccc34)c2)cc1', 'CDK8/CycC (Homo sapiens, UniProt P49336)', 102),
  ('Cn1ncc2c1-c1c(Oc3ccc(F)cc3F)sc(C(N)=O)c1CC2', 'CDK8/CycC (Homo sapiens, UniProt P49336)', 94),
  ('NC(=O)c1ccc(-c2c[nH]c3ncccc23)cc1NCc1ccccc1', 'CDK8/CycC (Homo sapiens, UniProt P49336)', 105),
  ('CCCN(CCC)C(=O)c1ccc2cncc(-c3ccc(C)cc3)c2n1 [Compound 7, trifluoroacetate]', 'CDK8/CycC (Homo sapiens, UniProt P49336)', 104),
  ('O=C1Nc2ccccc2N(S(=O)(=O)c2ccc(F)cc2)C1CCSc1ccc2nccn2n1 (stereo not shown)', 'CDK8/CycC (Homo sapiens, UniProt P49336)', 100),
  ('CCCCNC(=O)c1ccc2cncc(-c3ccc(OC)cc3)c2n1 [Compound 6, trifluoroacetate]', 'CDK8/CycC (Homo sapiens, UniProt P49336)', 102);

----------
Examples of compounds with documented inhibition at 1 µM follow.
- EXPERIMENTAL TARGET: CDK8/CycC (Homo sapiens)
- Construct: purchased Carna Biosciences
- EXPERIMENTAL PROTOCOL: CDK8-inhibiting activity (Kinase Tracer-236 / Eu-anti-GST fluorescence assay)
- Type: binding
- CONDITION DESCRIPTION: 1 μM test compound; read-out: rate of inhibition of CDK8
Structures can show the parent of a compound that is named as a salt.
ATTRIBUTE MEASURED: inhibition at 1 µM (%)

INSERT INTO assay_data (compound, measure_unit, numeric_readout) VALUES
  ('O=C1Nc2ccccc2N(S(=O)(=O)c2ccc(F)cc2)C1CCSc1ccc2nccn2n1 (stereo not shown)', '%', 100),
  ('CCCN(CCC)C(=O)c1ccc2cncc(-c3ccc(C)cc3)c2n1 [Compound 7, trifluoroacetate]', '%', 92),
  ('c1ccc(COc2cccc(-c3c[nH]c4ncccc34)c2)cc1', '%', 91),
  ('CCCCNC(=O)c1ccc2cncc(-c3ccc(OC)cc3)c2n1 [Compound 6, trifluoroacetate]', '%', 103),
  ('Oc1ccc(-c2n[nH]cc2-c2ccc3c(c2)OCCO3)c(O)c1 [Compound 5, reference compound]', '%', 87),
  ('NC(=O)c1ccc(-c2c[nH]c3ncccc23)cc1NCc1ccccc1', '%', 101),
  ('Cn1ncc2c1-c1c(Oc3ccc(F)cc3F)sc(C(N)=O)c1CC2', '%', 97);
